- ASSAY_TEXT: MTT assay in BJ1 cells
- Type: cell-based
- EXPERIMENTAL_PARAMETERS: human, hTERT-BJ1-PTERT(3.4)-SEAP cells; BJ1; compound concentration 1 μM; read-out: MTT (Inhibition μM ± SD)
Kindly supply the reported viability at 48 h, 1 µM values for the records listed here.
Answers are plain numbers, in %.

Here are 4 compounds together with their reported answers.
- COMPOUND: "O=C(CCCCl)Nc1ccc2c(c1)C(=O)c1cc(NC(=O)CCCCl)ccc1C2=O [Compound 25, 2,7-Bis(4-chlorobutyramido)anthraquinone]"
  UNIT_TEXT: "%"
  viability at 48 h, 1 µM: 72
- COMPOUND: "O=C(CN1CCNCC1)Nc1ccc2c(c1)C(=O)c1cc(NC(=O)CN3CCNCC3)ccc1C2=O [Compound 12]"
  UNIT_TEXT: "%"
  viability at 48 h, 1 µM: 88
- COMPOUND: "O=C(Cc1ccccc1)Nc1ccc2c(c1)C(=O)c1cc(NC(=O)Cc3ccccc3)ccc1C2=O [Compound 30, 2,7-Bis(phenylacetamido)anthraquinone]"
  UNIT_TEXT: "%"
  viability at 48 h, 1 µM: 93
- COMPOUND: "CCC(=O)Nc1ccc2c(c1)C(=O)c1cc(NC(=O)CC)ccc1C2=O [Compound 27, 2,7-Bis(propionamido)anthraquinone]"
  UNIT_TEXT: "%"
  viability at 48 h, 1 µM: 77

For each of the items listed, what is its viability at 48 h, 1 µM?
1. O=C1c2ccc(NC(=O)C3CCCCC3)cc2C(=O)c2cc(NC(=O)C3CCCCC3)ccc21 [Compound 34]
2. O=C(CN1CCCC1)Nc1ccc2c(c1)C(=O)c1cc(NC(=O)CN3CCCC3)ccc1C2=O [Compound 6]
3. CCCCNCCC(=O)Nc1ccc2c(c1)C(=O)c1cc(NC(=O)CCNCCCC)ccc1C2=O [Compound 17]
4. O=C1c2ccc([N+](=O)[O-])cc2C(=O)c2cc([N+](=O)[O-])ccc21 [Compound 1, 2,7-dinitroanthraquinone]
5. O=C(CCN1CCNCC1)Nc1ccc2c(c1)C(=O)c1cc(NC(=O)CCN3CCNCC3)ccc1C2=O [Compound 24]
6. CCCNCCC(=O)Nc1ccc2c(c1)C(=O)c1cc(NC(=O)CCNCCC)ccc1C2=O [Compound 21]
7. CCN(CC)CCC(=O)Nc1ccc2c(c1)C(=O)c1cc(NC(=O)CCN(CC)CC)ccc1C2=O [Compound 16]
8. O=C(Nc1ccc2c(c1)C(=O)c1cc(NC(=O)c3ccccc3)ccc1C2=O)c1ccccc1 [Compound 29, 2,7-Bis(benzoamido)anthraquinone]

Reply:
[87, 99, 80, 91, 96, 75, 103, 92]

For each entry beneath this line, provide reported viability at 48 h, 1 µM.
1. CCN(CC)CC(=O)Nc1ccc2c(c1)C(=O)c1cc(NC(=O)CN(CC)CC)ccc1C2=O [Compound 4]
2. O=C(CCl)Nc1ccc2c(c1)C(=O)c1cc(NC(=O)CCl)ccc1C2=O [Compound 3, 2,7-bis(chloroacetamido)anthraquinone]
3. CC(=O)Nc1ccc2c(c1)C(=O)c1cc(NC(C)=O)ccc1C2=O [Compound 26, 2,7-Bis(acetamido)anthraquinone]

Reply:
116
105
106

Please report viability at 48 h, 1 µM for every entry that follows.
1. CCCC(=O)Nc1ccc2c(c1)C(=O)c1cc(NC(=O)CCC)ccc1C2=O [Compound 28, 2,7-Bis(butyramido)anthraquinone]
2. O=C(CN1CCCCC1)Nc1ccc2c(c1)C(=O)c1cc(NC(=O)CN3CCCCC3)ccc1C2=O [Compound 7]
3. O=C(CCN1CCCCC1)Nc1ccc2c(c1)C(=O)c1cc(NC(=O)CCN3CCCCC3)ccc1C2=O [Compound 19]

Reply:
84
89
92

I'm hoping you can list viability at 48 h, 1 µM for every compound here, please.
1. CCCCNCC(=O)Nc1ccc2c(c1)C(=O)c1cc(NC(=O)CNCCCC)ccc1C2=O [Compound 5]
2. CCCNCC(=O)Nc1ccc2c(c1)C(=O)c1cc(NC(=O)CNCCC)ccc1C2=O [Compound 9]
3. CN(C)CCC(=O)Nc1ccc2c(c1)C(=O)c1cc(NC(=O)CCN(C)C)ccc1C2=O [Compound 20]
4. O=C1c2ccc(NC(=O)C3CC3)cc2C(=O)c2cc(NC(=O)C3CC3)ccc21 [Compound 32]
5. O=C(CCN1CCCC1)Nc1ccc2c(c1)C(=O)c1cc(NC(=O)CCN3CCCC3)ccc1C2=O [Compound 18]

Reply:
103
96
94
60
82

Quick one: give me viability at 48 h, 1 µM for each item below, same order please.
1. CN(C)CC(=O)Nc1ccc2c(c1)C(=O)c1cc(NC(=O)CN(C)C)ccc1C2=O [Compound 8]
2. O=C(CCCl)Nc1ccc2c(c1)C(=O)c1cc(NC(=O)CCCl)ccc1C2=O [Compound 15]

Reply:
1. 96
2. 77

Quick batch: viability at 48 h, 1 µM for everything below.
1. CC(C)NCC(=O)Nc1ccc2c(c1)C(=O)c1cc(NC(=O)CNC(C)C)ccc1C2=O [Compound 13]
2. O=C(CCc1ccccc1)Nc1ccc2c(c1)C(=O)c1cc(NC(=O)CCc3ccccc3)ccc1C2=O [Compound 31, 2,7-Bis(phenylpropionamido)anthraquinone]
3. CN1CCN(CCC(=O)Nc2ccc3c(c2)C(=O)c2cc(NC(=O)CCN4CCN(C)CC4)ccc2C3=O)CC1 [Compound 23]
4. Nc1ccc2c(c1)C(=O)c1cc(N)ccc1C2=O [Compound 2, 2,7-Diaminoanthraquinone]

Reply:
1. 89
2. 89
3. 95
4. 95

# credit: patent US20090253709A1
